# testTarget: Serine/threonine-protein kinase WNK3 (Homo sapiens);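 also: remaining kinase activity expressed versus control, assayed in 8 mM MOPS buffer pH 7.0 with 0.2 mM EDTA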
# recordedConditions: at 1 µM
# Description: Millipore: Percentage of residual kinase activity of WNK3 at 1uM relative to control. Control inhibitor: Phosphoric acid* at 0.3uM. Buffer: 8 mM MOPS pH 7.0, 0.2 mM EDTA

querySmiles	residual activity / %
O=C1NC(=O)c2c1c1c3ccccc3n3c1c1c2c2ccccc2n1C1CCC3O1	94
CN[C@@H]1C[C@H]2O[C@@](C)([C@@H]1OC)n1c3ccccc3c3c4c(c5c6ccccc6n2c5c31)C(=O)NC4	88
CCn1cnc2c(Nc3cccc(Cl)c3)nc(N[C@@H]3CCCC[C@@H]3N)nc21	87
O=C1c2ccccc2-c2nc3nnnn3nc21	115
O=c1[nH]c2ccccc2n1C1CCN(Cc2ccc(-c3nc4cc5[nH]cnc5cc4nc3-c3ccccc3)cc2)CC1	116
COc1cc2ncnc(Nc3ccc(OCc4ccccc4)cc3)c2cc1OC	95
CC(C)(C)c1cc(C=C(C#N)C#N)cc(Br)c1O	111

###

# testTarget: Tyrosine-protein kinase Fgr (Homo sapiens) (UniProt P09769)
# Sequence (P09769 2-529 limits assumed): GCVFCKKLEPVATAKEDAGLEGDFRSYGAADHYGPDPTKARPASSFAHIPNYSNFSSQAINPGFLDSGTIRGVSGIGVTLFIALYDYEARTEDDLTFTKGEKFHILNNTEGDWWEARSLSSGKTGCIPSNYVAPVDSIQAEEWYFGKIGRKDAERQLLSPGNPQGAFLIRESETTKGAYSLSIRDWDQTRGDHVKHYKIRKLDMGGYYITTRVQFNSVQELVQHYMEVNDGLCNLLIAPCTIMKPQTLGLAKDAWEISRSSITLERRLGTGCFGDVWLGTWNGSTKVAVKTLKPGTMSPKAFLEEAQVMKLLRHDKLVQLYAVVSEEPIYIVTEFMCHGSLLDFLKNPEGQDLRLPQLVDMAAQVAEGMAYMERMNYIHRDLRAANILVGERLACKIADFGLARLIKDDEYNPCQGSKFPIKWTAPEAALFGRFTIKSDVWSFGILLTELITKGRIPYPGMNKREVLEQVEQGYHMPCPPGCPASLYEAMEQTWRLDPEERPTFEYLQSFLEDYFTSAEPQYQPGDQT
# recordedConditions: at 10 µM
Each item that follows carries a reported residual activity.

querySmiles	resultUnits	residual activity
COc1ccc2c(c[n+](C)c3c4cc5c(cc4ccc23)OCO5)c1OC	%	77
COc1cc2ncnc(Nc3ccc(OCc4ccccc4)cc3)c2cc1OC	%	42
COc1ccc2c(c1)/C(=C/c1cnc[nH]1)C(=O)N2	%	16
CC(C)[C@H](CO)Nc1nc(Nc2cccc(Cl)c2)c2ncn(C(C)C)c2n1	%	0
CCn1cnc2c(Nc3cccc(Cl)c3)nc(N[C@@H]3CCCC[C@@H]3N)nc21	%	3

###

# testTarget: Ephrin type-A receptor 5 (Homo sapiens) (UniProt P54756)
# Sequence (P54756 whole entry): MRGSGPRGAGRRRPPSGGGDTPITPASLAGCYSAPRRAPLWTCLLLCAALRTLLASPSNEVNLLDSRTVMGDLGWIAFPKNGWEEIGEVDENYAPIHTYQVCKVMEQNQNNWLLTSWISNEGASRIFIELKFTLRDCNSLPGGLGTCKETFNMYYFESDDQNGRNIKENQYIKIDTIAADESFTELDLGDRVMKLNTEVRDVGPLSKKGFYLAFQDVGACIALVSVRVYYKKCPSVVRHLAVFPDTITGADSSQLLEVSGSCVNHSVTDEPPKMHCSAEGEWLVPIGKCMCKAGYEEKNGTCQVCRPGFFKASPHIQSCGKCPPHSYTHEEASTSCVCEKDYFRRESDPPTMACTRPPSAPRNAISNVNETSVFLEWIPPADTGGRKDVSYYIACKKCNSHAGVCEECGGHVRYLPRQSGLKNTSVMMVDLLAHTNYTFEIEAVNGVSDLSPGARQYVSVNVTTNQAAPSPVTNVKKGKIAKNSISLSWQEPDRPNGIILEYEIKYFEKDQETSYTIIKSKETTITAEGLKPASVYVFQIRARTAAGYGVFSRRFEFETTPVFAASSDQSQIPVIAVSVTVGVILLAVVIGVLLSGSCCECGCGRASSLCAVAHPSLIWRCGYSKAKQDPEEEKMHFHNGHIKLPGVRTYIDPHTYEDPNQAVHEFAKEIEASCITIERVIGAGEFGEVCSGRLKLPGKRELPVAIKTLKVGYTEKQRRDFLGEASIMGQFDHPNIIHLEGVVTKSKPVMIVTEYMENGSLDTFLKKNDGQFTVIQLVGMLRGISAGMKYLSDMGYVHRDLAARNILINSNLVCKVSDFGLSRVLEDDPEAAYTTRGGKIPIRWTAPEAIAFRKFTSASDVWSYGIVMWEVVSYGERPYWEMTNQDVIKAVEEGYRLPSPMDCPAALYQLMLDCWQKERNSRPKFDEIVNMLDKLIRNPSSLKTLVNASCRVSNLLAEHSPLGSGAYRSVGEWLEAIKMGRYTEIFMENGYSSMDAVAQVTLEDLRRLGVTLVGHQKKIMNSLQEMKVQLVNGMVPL
# recordedConditions: at 10 µM

querySmiles	residual activity / %
COc1cc2ncnc(Nc3ccc(OCc4ccccc4)cc3)c2cc1OC	104
O=C1c2ccccc2-c2nc3nnnn3nc21	124
O=C1Nc2ccc3ncsc3c2/C1=C/c1c[nH]cn1	42
O=c1[nH]c2ccccc2n1C1CCN(Cc2ccc(-c3nc4cc5[nH]cnc5cc4nc3-c3ccccc3)cc2)CC1	99
CC(C)[C@H](CO)Nc1nc(Nc2cccc(Cl)c2)c2ncn(C(C)C)c2n1	14

###

# testTarget: MAP kinase-activated protein kinase 3 (Homo sapiens) (UniProt Q16644)
# Sequence (Q16644 whole entry, looked up): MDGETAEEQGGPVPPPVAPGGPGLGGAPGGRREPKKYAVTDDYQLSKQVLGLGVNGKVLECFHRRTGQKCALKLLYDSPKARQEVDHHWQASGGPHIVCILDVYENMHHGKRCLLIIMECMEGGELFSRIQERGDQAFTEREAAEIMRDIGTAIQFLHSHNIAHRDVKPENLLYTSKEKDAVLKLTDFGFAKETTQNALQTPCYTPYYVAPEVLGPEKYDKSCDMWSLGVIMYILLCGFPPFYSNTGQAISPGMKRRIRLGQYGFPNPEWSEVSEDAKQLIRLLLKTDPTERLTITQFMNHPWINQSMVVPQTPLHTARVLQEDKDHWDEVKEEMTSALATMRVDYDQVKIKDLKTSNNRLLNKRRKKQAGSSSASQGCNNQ
# recordedConditions: at 1 µM
testReadout: residual activity

querySmiles	testReadout	testValue
CO[C@H]1[C@@H](OC)C[C@H](C)[C@@H](OC)C2=CC(=O)C=C(NC(=O)/C(C)=C/C=C/[C@H](OC)[C@@H](OC(N)=O)/C(C)=C/[C@@H]1C)C2=O	residual activity	110%
COc1cccc(-c2cc(=O)c3ccccc3o2)c1N	residual activity	122%
Oc1n[nH]c2nnc(-c3c(-c4ccccc4)nn4ccccc34)cc12	residual activity	98%
O=C1NC(=O)c2c1c1c3ccccc3[nH]c1n1cncc21	residual activity	86%
O=C1Nc2ccc(Br)cc2/C1=C\c1cc2c([nH]1)CCCC2	residual activity	126%
c1ccc(-c2n[nH]c3c2oc2ccccc23)cc1	residual activity	94%
O=C1c2ccccc2-[n+]2ccc3c([nH]c4ccccc43)c21	residual activity	115%
O=[N+]([O-])/C=C/c1ccc2c(c1)OCO2	residual activity	93%
CC(C)(C)n1nc(Cc2cccc3ccccc23)c2c(N)ncnc21	residual activity	116%
Nc1ncnc2c1c(-c1ccc(Oc3ccccc3)cc1)cn2C1CCCC1	residual activity	114%
CCCCc1c(-c2ccc(OC)cc2)[nH]c2nccnc12	residual activity	130%
O=C(Nc1cccc(Nc2nccc(Nc3cccc(C(F)(F)F)c3)n2)c1)C1CC1	residual activity	122%
O=C(O)/C=C/c1cc(Br)c(Br)c(Br)c1Br	residual activity	107%
O=C(O)c1ccc2c3c1cccc3c(=O)n1c3ccccc3nc21	residual activity	123%
COc1cc2ncnc(Nc3ccc(Oc4ccccc4)cc3)c2cc1OC	residual activity	118%
N#C/C(=C1/Nc2ccccc2S1)c1ccnc(NCCc2cccnc2)n1	residual activity	99%
Nc1n[nH]c2nnc(-c3c(-c4ccccc4)nn4ccccc34)cc12	residual activity	99%
O=c1cc(-c2cccc3c2Sc2ccccc2S3)oc(N2CCOCC2)c1	residual activity	115%
NC(=O)c1ccc2[nH]c(-c3ccc(Oc4ccc(Cl)cc4)cc3)nc2c1	residual activity	111%
CN(C)CCCn1cc(C2=C(c3c[nH]c4ccccc34)C(=O)NC2=O)c2ccccc21	residual activity	137%
COc1cc(OC)c(/C=C2\C(=O)Nc3ccccc32)c(OC)c1	residual activity	103%
Nc1nc(Nc2ccc(S(N)(=O)=O)cc2)nn1C(=O)c1c(F)cccc1F	residual activity	103%

###

# testTarget: Serine/threonine-protein kinase Nek6 (Homo sapiens) (UniProt Q9HC98)
# Sequence (Q9HC98 whole entry): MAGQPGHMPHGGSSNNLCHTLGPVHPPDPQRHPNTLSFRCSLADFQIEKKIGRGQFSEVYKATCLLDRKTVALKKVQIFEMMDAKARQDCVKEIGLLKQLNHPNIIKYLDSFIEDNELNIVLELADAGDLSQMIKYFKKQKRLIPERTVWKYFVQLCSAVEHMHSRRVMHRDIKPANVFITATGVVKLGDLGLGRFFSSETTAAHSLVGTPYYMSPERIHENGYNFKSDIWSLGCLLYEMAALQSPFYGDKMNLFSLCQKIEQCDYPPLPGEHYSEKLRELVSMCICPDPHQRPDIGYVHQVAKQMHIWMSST
# recordedConditions: at 1 µM
# Description: Millipore: Percentage of residual kinase activity of NEK6 at 1uM relative to control. Control inhibitor: Phosphoric acid* at 0.3uM. Buffer: 8 mM MOPS pH 7.0, 0.2 mM EDTA
testReadout: residual activity (%)

querySmiles	testReadout	testValue
c1cc(-c2cnn3cc(-c4ccc(OCCN5CCCCC5)cc4)cnc23)ccn1	residual activity	118
CC(C)(C)c1cc(C=C(C#N)C#N)cc(Br)c1O	residual activity	117
O=C1Nc2ccc3ncsc3c2/C1=C/c1c[nH]cn1	residual activity	80
COC(=O)[C@@]1(O)C[C@H]2O[C@]1(C)n1c3ccccc3c3c4c(c5c6ccccc6n2c5c31)C(=O)NC4	residual activity	104
CCc1nc(-c2ccc(OC)cc2)[nH]c1-c1ccncc1	residual activity	116
CN[C@@H]1C[C@H]2O[C@@](C)([C@@H]1OC)n1c3ccccc3c3c4c(c5c6ccccc6n2c5c31)C(=O)NC4	residual activity	75
CC(C)[C@H](CO)Nc1nc(Nc2cccc(Cl)c2)c2ncn(C(C)C)c2n1	residual activity	117

###

# testTarget: Insulin-like growth factor 1 receptor (Homo sapiens)
# recordedConditions: at 1 µM
Each item that follows carries a reported residual activity.

querySmiles	testTarget	resultUnits	residual activity
COc1cc(OC)c(/C=C2\C(=O)Nc3ccccc32)c(OC)c1	Insulin-like growth factor 1 receptor (Homo sapiens)	%	93
O=C1c2ccccc2-c2nc3nnnn3nc21	Insulin-like growth factor 1 receptor (Homo sapiens)	%	129
COC(=O)[C@@]1(O)C[C@H]2O[C@]1(C)n1c3ccccc3c3c4c(c5c6ccccc6n2c5c31)C(=O)NC4	Insulin-like growth factor 1 receptor (Homo sapiens)	%	77
CCn1cnc2c(Nc3cccc(Cl)c3)nc(N[C@@H]3CCCC[C@@H]3N)nc21	Insulin-like growth factor 1 receptor (Homo sapiens)	%	95

###

Each item that follows carries a reported residual activity.
# testTarget: Cyclin-dependent kinase 5/CDK5 activator 1 (Homo sapiens) (UniProt Q00535+Q15078)
# Sequence (Q00535 whole entry): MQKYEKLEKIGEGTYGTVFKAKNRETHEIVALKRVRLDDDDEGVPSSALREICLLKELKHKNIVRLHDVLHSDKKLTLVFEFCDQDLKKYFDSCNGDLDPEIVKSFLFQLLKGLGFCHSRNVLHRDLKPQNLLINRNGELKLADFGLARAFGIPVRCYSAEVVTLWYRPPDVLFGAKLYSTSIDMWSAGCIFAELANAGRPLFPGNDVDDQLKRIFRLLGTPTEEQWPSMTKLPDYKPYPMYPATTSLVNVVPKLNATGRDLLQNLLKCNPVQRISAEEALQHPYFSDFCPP
# Sequence (Q15078 99-307 partner limits assumed): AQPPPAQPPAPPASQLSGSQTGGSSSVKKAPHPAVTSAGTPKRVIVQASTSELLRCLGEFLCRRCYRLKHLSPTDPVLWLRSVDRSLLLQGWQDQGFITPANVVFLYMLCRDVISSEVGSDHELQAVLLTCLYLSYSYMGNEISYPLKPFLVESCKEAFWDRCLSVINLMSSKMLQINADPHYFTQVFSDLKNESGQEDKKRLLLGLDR
# recordedConditions: at 1 µM
testReadout: residual activity (%)

compound	testTarget	testValue
CC(C)(C)c1cc(C=C(C#N)C#N)cc(Br)c1O	Cyclin-dependent kinase 5/CDK5 activator 1 (Homo sapiens) (UniProt Q00535+Q15078)	107
O=C1Nc2ccc3ncsc3c2/C1=C/c1c[nH]cn1	Cyclin-dependent kinase 5/CDK5 activator 1 (Homo sapiens) (UniProt Q00535+Q15078)	1
COc1cc(OC)c(/C=C2\C(=O)Nc3ccccc32)c(OC)c1	Cyclin-dependent kinase 5/CDK5 activator 1 (Homo sapiens) (UniProt Q00535+Q15078)	88
C[S+]([O-])c1ccc(-c2nc(-c3ccc(F)cc3)c(-c3ccncc3)[nH]2)cc1 (stereo not given)	Cyclin-dependent kinase 5/CDK5 activator 1 (Homo sapiens) (UniProt Q00535+Q15078)	117
COc1cc2ncnc(Nc3ccc(OCc4ccccc4)cc3)c2cc1OC	Cyclin-dependent kinase 5/CDK5 activator 1 (Homo sapiens) (UniProt Q00535+Q15078)	106
O=[N+]([O-])/C=C/c1ccc2c(c1)OCO2	Cyclin-dependent kinase 5/CDK5 activator 1 (Homo sapiens) (UniProt Q00535+Q15078)	97
COc1ccc2c(c1)/C(=C/c1cnc[nH]1)C(=O)N2	Cyclin-dependent kinase 5/CDK5 activator 1 (Homo sapiens) (UniProt Q00535+Q15078)	0
CCc1nc(-c2ccc(OC)cc2)[nH]c1-c1ccncc1	Cyclin-dependent kinase 5/CDK5 activator 1 (Homo sapiens) (UniProt Q00535+Q15078)	101
O=c1[nH]c2ccccc2n1C1CCN(Cc2ccc(-c3nc4cc5[nH]cnc5cc4nc3-c3ccccc3)cc2)CC1	Cyclin-dependent kinase 5/CDK5 activator 1 (Homo sapiens) (UniProt Q00535+Q15078)	95
c1cc(-c2cnn3cc(-c4ccc(OCCN5CCCCC5)cc4)cnc23)ccn1	Cyclin-dependent kinase 5/CDK5 activator 1 (Homo sapiens) (UniProt Q00535+Q15078)	55

###

Each item that follows carries a reported residual activity.
# testTarget: Rho-associated protein kinase 2 (Homo sapiens)
# recordedConditions: at 1 µM

querySmiles	residual activity / %
CCc1nc(-c2ccc(OC)cc2)[nH]c1-c1ccncc1	107
O=c1[nH]c2ccccc2n1C1CCN(Cc2ccc(-c3nc4cc5[nH]cnc5cc4nc3-c3ccccc3)cc2)CC1	103
CC(C)[C@H](CO)Nc1nc(Nc2cccc(Cl)c2)c2ncn(C(C)C)c2n1	95
O=S(=O)(NCCNC/C=C/c1ccc(Br)cc1)c1cccc2cnccc12	8
O=C1Nc2ccc3ncsc3c2/C1=C/c1c[nH]cn1	5
COc1cc(OC)c(/C=C2\C(=O)Nc3ccccc32)c(OC)c1	88
CO[C@H]1[C@@H](OC)C[C@H](C)[C@@H](OC)C2=CC(=O)C=C(NC(=O)/C(C)=C/C=C/[C@H](OC)[C@@H](OC(N)=O)/C(C)=C/[C@@H]1C)C2=O	106
O=[N+]([O-])/C=C/c1ccc2c(c1)OCO2	99
COC(=O)[C@@]1(O)C[C@H]2O[C@]1(C)n1c3ccccc3c3c4c(c5c6ccccc6n2c5c31)C(=O)NC4	15
